Taken from patent US20160015034A1.

assay: Water solubility by slurry equilibration and HPLC; type: physicochemical; conditions: pH 7, aqueous buffer, thermodynamic from solid
assay readout: solubility at 1 h (µg/mL)
Numbers only, in µg/mL.

| smiles | unit text | solubility at 1 h |
| --- | --- | --- |
| Cn1c(=O)c2sc3c(=O)n(C)c(=O)c3sc2c1=O | µg/mL | 2 |

Proceeding to the next compound to report its solubility at 1 h.
Recorded result, Cc1cc(C)nc(Nc2ccccc2)n1 , solubility at 1 h: 58
